Entry source: patent US20020151553A1

- system.tested: chemokine receptor (RANTES / MIP-1α binding) on THP-1 cell membranes (Homo sapiens, UniProt P32246)
- assay.procedure: Receptor binding assay with 125I-RANTES or 125I-MIP-1α as ligand and THP-1 cell membranes
- condition: 125I-RANTES or 125I-MIP-1α as ligand; THP-1 cell membranes; 60 min at room temperature; read-out: IC50 (inhibitor concentration required for 50% inhibition of specific binding)
Label scheme for IC50: Low = under 90 nM, Mid = from 90 nM up to 300 nM, High = 300 nM and over

| compound | category |
| --- | --- |
| OC1(c2ccc(Cl)cc2)CCN(CCCC2c3ccccc3COc3ccccc32)CC1 (stereo not shown) | Low |
| N#CC1(CCCN2CCC(O)(c3ccc(Cl)cc3)CC2)c2ccccc2COc2ccccc21 (stereo not shown) | Mid |
| N#CC1(CCCN2CCC(O)(c3ccc(Cl)cc3)CC2)c2ccccc2COc2ccc(F)cc21 (stereo not shown) | Mid |

Query: Band of N#CC1(CCCN2CCC(O)(c3ccc(Cl)cc3)CC2)c2ccccc2CSc2ccc(Br)cc21 (stereo not shown) ?
Response: High

Query: # iterate: Cc1ccc2c(c1)C(C#N)(CCCN1CCC(O)(c3ccc(Cl)cc3)CC1)c1ccccc1CO2 (stereo not shown)
Response: High

Query: # iterate: OC1(c2ccc(Cl)cc2)CCN(CCCC2c3ccccc3CCc3ccccc32)CC1
Response: Low

Query: # iterate: OC1(c2ccc(Cl)cc2)CCN(CCCC2c3ccccc3CSc3ccccc32)CC1 (stereo not shown)
Response: Low

Query: # iterate: N#CC1(CCCN2CCC(O)(c3ccc(F)cc3)CC2)c2ccccc2COc2ccccc21 (stereo not shown)
Response: High

====

- system.tested: chemokine receptor (RANTES / MIP-1α binding) on THP-1 cell membranes (Homo sapiens, UniProt P32246)
- assay.procedure: Receptor binding assay with 125I-RANTES or 125I-MIP-1α as ligand and THP-1 cell membranes
We begin with a simple list: items and their reported IC50.
// note: answer is a bare numeric in nM

Recorded results for 5 compounds are shown here.
| compound | IC50 [nM] |
| --- | --- |
| N#CC1(CCCN2CCC(O)(c3ccc(Cl)cc3)CC2)c2ccccc2CSc2ccccc21 (stereo not drawn) [Example 10] | 97 |
| N#CC1(CCCN2CCC(O)(c3ccc(Cl)cc3)CC2)c2ccccc2C[S+]([O-])c2ccccc21 (single isomer, unassigned) [Example 15] | 610 |
| N#CC1(CCCN2CCC(O)(c3ccc(Cl)cc3)CC2)c2ccccc2CCc2ccccc21 [Example 2] | 52 |
| O=C(NCC1(CCCN2CCC(O)(c3ccc(Cl)cc3)CC2)c2ccccc2CSc2ccccc21)Oc1ccccc1 (stereo not drawn) [Example 22] | 690 |
| O=C(CCN1CCC(O)(c2ccc(Cl)cc2)CC1)C1c2ccccc2CCc2ccccc21 [Example 24] | 160 |

Would you kindly look at the next entry?
Query: I have this compound here, N#CC1(CCCN2CCC(O)(c3ccc(Cl)cc3)CC2)c2ccccc2C[S+]([O-])c2ccccc21 (single isomer, unassigned) [Example 14] , and I need its recorded IC50.
Response: 280

====

- system.tested: chemokine receptor (RANTES / MIP-1α binding) on THP-1 cell membranes (Homo sapiens, UniProt P32246)
- Sequence (P32246 1-355): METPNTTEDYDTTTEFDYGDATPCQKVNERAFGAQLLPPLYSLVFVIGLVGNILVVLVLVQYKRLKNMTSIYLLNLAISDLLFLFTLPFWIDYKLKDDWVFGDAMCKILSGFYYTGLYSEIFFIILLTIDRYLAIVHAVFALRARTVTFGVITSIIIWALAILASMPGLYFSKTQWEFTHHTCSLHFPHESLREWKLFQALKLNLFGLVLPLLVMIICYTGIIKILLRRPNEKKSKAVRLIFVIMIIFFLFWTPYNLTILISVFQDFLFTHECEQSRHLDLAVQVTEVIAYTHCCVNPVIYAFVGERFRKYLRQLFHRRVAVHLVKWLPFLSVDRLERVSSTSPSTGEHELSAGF
- assay.procedure: Receptor binding assay with 125I-RANTES or 125I-MIP-1α as ligand and THP-1 cell membranes
- condition: 125I-RANTES or 125I-MIP-1α as ligand; THP-1 cell membranes; 60 min at room temperature; read-out: IC50 (inhibitor concentration required for 50% inhibition of specific binding)
- Experimental: Membranes were prepared from THP-1 cells (ATCC #TIB202). Cells were harvested by centrifugation, washed twice with PBS (phosphate-buffered saline), and the cell pellets were frozen at −70 to −85° C. […] This procedure results in cell lysis. The suspension was mixed well to resuspend all of the frozen cell pellet. […] All clumps were resolved using a minihomogenizer, and the total protein concentration was determined using a protein assay kit (Bio-Rad, Hercules, Calif., cat #500-0002). […]
We begin with a simple list: items and their reported log10(IC50).
For clarity, the numbers are log10 values of IC50 expressed in µM.

Recorded results for 4 molecules are shown here.
| molecule | measure.name | value.reported |
| --- | --- | --- |
| N#CC1(CCCN2CCC(O)(c3ccc(Cl)cc3)CC2)c2ccccc2COc2ccc(Br)cc21 (centres unmarked) | log10(IC50) | -0.52 |
| N#CC1(CCCN2CCC(O)(c3ccc(Cl)cc3)CC2)c2ccccc2C=Cc2ccccc21 | log10(IC50) | -1.06 |
| N#CC1(CCCN2CCC(O)(c3ccccc3)CC2)c2ccccc2CSc2ccccc21 (centres unmarked) | log10(IC50) | 1.04 |
| N#CC1(CCCN2CCC(O)(c3ccc(Br)cc3)CC2)c2ccccc2CSc2ccccc21 (centres unmarked) | log10(IC50) | -1.00 |

Query: I have this molecule here, N#CC1(CCCN2CCC(O)(c3ccc(Cl)cc3)CC2)c2ccccc2CS(=O)(=O)c2ccccc21 (centres unmarked) , and I need its recorded log10(IC50).
Response: -1.10
